pIC50 values for the compounds below.
target: PRKACA-DNAJB1 (Homo sapiens, UniProt P17612); construct: DNAJB1 (fusion partner, P25685); the other entry of the earlier key: DNAJB1 (P25685, DnaJ homolog subfamily B member 1); test: PRKACA-DNAJB1 enzyme assay (EZ Reader 2 electrophoretic mobility shift); details: read-out: Enz PRKACA-DNAJB1 IC50
pIC50: −log10 of the molar value.

| COMPOUND | TESTED_TARGET | pIC50 |
| --- | --- | --- |
| O=C(N[C@@H]1c2c(Cl)cccc2OC[C@@H]1O)c1ccc(-c2ccnc3[nH]ccc23)nc1 [Compound 139] | PRKACA-DNAJB1 (Homo sapiens, UniProt P17612) | 8.30 to 9.00 |
| O=C(N[C@@H]1c2c(Cl)cccc2C[C@H]1N1C[C@H](O)[C@@H](F)C1)c1ccc(-c2ccnc3[nH]ccc23)nc1 [Compound 185] | PRKACA-DNAJB1 (Homo sapiens, UniProt P17612) | ≥ 9.00 |
| O=C(N[C@@H]1c2ccccc2C[C@H]1O)c1ccc(-c2ccnc3[nH]cc(F)c23)cc1 [Compound 111] | PRKACA-DNAJB1 (Homo sapiens, UniProt P17612) | ≥ 9.00 |
| O=C(N[C@@H]1c2ccccc2OC[C@@H]1O)c1ccc(-c2ccnc3[nH]cc(F)c23)cc1 [Compound 123] | PRKACA-DNAJB1 (Homo sapiens, UniProt P17612) | ≥ 9.00 |
| Cc1c[nH]c2nccc(-c3ccc(C(=O)N[C@H]4C[C@@H](C)Oc5ccc(F)c(F)c54)cn3)c12 [Compound 148] | PRKACA-DNAJB1 (Homo sapiens, UniProt P17612) | ≥ 9.00 |
| O=C(N[C@@H]1c2c(Cl)cccc2C[C@H]1N1CC[C@@H](O)C1)c1ccc(-c2ccnc3[nH]ccc23)cn1 [Compound 176] | PRKACA-DNAJB1 (Homo sapiens, UniProt P17612) | ≥ 9.00 |
| O=C(N[C@@H]1c2ccccc2C[C@H]1N1CCCC1)c1ccc(-c2ccnc3[nH]cc(F)c23)nc1 [Compound 159] | PRKACA-DNAJB1 (Homo sapiens, UniProt P17612) | 8.30 to 9.00 |

---

molecular target: PRKACA-DNAJB1 (Homo sapiens); construct: DNAJB1 (fusion partner, P25685); the other entry of the earlier key: DNAJB1 (P25685, DnaJ homolog subfamily B member 1); experiment: PRKACA-DNAJB1 enzyme assay (EZ Reader 2 electrophoretic mobility shift); conditions: read-out: Enz PRKACA-DNAJB1 IC50

| MOLECULE | IC50 |
| --- | --- |
| Cc1c[nH]c2nccc(-c3ccc(C(=O)N[C@@H]4c5c(F)cc(C(F)F)cc5C[C@@H]4O)cn3)c12 | ≤ 1 nM |
| O=C(N[C@H]1CCc2cc(C(F)F)ccc21)c1ccc(-c2ccnc3[nH]ccc23)cc1 (single isomer, unassigned) | ≤ 1 nM |
| N[C@@H]1Cc2ccccc2[C@H]1NC(=O)c1ccc(-c2ccnc3[nH]ccc23)cc1 | ≤ 1 nM |
| O=C(N[C@@H]1c2c(Cl)cccc2C[C@H]1N1C[C@@H](F)[C@@H](O)C1)c1ccc(-c2ccnc3[nH]ccc23)nc1 | 1.01 to 5 nM |
| O=C(N[C@@H]1c2ccccc2C[C@@H]1O)c1ccc(-c2ccnc3[nH]ccc23)cc1 | ≤ 1 nM |
| O=C(N[C@H]1CCOc2cccc(F)c21)c1ccc(-c2ccnc3[nH]cc(F)c23)cc1 | ≤ 1 nM |
| O=C(N[C@@H]1c2c(F)cc(C(F)F)cc2C[C@H]1N1CC[C@H](F)C1)c1ccc(-c2ccnc3[nH]ccc23)nc1 | ≤ 1 nM |
| O=C(N[C@@H]1c2ccccc2C[C@@H]1O)c1ccc(-c2ccnc3[nH]cc(F)c23)cc1 | ≤ 1 nM |
| O=C(N[C@@H]1c2c(F)cccc2OC[C@@H]1O)c1ccc(-c2ccnc3[nH]ccc23)cn1 | 1.01 to 5 nM |
| CO[C@@H]1CCN([C@@H]2Cc3cccc(Cl)c3[C@H]2NC(=O)c2ccc(-c3ccnc4[nH]cc(C)c34)nc2)C1 | 1.01 to 5 nM |
| O=C(N[C@@H]1c2c(F)cccc2C[C@H]1N1CC[C@@H](O)C1)c1ccc(-c2ccnc3[nH]ccc23)nc1 | ≤ 1 nM |
| Cc1c[nH]c2nccc(-c3ccc(C(=O)N[C@@H]4c5ccccc5C[C@H]4O)cc3)c12 | ≤ 1 nM |
| CO[C@@H]1CCN([C@@H]2Cc3cccc(F)c3[C@H]2NC(=O)c2ccc(-c3ccnc4[nH]ccc34)nc2)C1 | ≤ 1 nM |
| Cc1c[nH]c2nccc(-c3ccc(C(=O)N[C@@H]4c5c(F)cccc5C[C@H]4N4CCCC4)cn3)c12 | ≤ 1 nM |
